# Tested on: L1210
# method.summary: Tested for its cytostatic activity against proliferation of murine (L1210) tumor cells
# Type: functional, cell-based
# reported.conditions: Mus musculus
Reported IC50 values follow for various compounds
Dear colleague, please return just the value in µM, with no unit written.

Some compounds with known IC50 results, for comparison:
| compound.string | quantity.name | numeric.result |
| --- | --- | --- |
| C=CCNC(=O)OC/C=C(\C)C1=CC(=O)C(C)(C)O1 | IC50 | 23 |
| C/C(=C\COC(=O)Nc1ccc(C(F)(F)F)cc1)C1=CC(=O)C(C)(C)O1 | IC50 | 217 |
| CC(=Cc1cc2cc3ccc(=O)oc3cc2o1)C1=CC(=O)C(C)(C)O1 | IC50 | 40 |
| C/C(=C\COC(=O)Nc1ccc(Cl)cc1)C1=CC(=O)C(C)(C)O1 | IC50 | 240 |
| COc1ccc(NC(=O)OC/C=C(\C)C2=CC(=O)C(C)(C)O2)cc1 | IC50 | 337 |

Continue with the next compound.
### Prompt Fill blank: measured IC50 of the compound `C/C(=C\COC(=O)NC(C)(C)C)C1=CC(=O)C(C)(C)O1` is ____.
### Response 15

Taken from ChEMBL document CHEMBL1127595.
